Tested on: P. aeruginosa ATCC 27853 (wild-type/QC strain)
measurement_protocol: broth microdilution MIC assay, P. aeruginosa ATCC 27853
Assay type: cell-based
particulars: Pseudomonas aeruginosa, ATCC27853; Table 3; P. aeruginosa 27853; read-out: P. aeruginosa 27853 MIC
Would you kindly list MIC for each of these compounds?

Entry C[C@@H](O)[C@H]1C(=O)N2C(C(=O)O)=C(S[C@@H]3CCN(CC4(C)CCNCC4)C3)[C@H](C)[C@H]12 [Example 15] has what MIC?
8 to 32 µg/mL

Request the reported MIC associated with C[C@@H](O)[C@H]1C(=O)N2C(C(=O)O)=C(S[C@@H]3CCN([C@H]4CC[C@@H](N)CC4)C3)[C@H](C)[C@H]12 [Example 23]
1 to 4 µg/mL

What measured MIC goes with C[C@@H](O)[C@H]1C(=O)N2C(C(=O)O)=C(S[C@@H]3CCN(C4CCN(CCN)CC4)C3)[C@H](C)[C@H]12 [Example 27] ?
1 to 4 µg/mL

====

For each record, write down the corresponding MIC.
Test system: clinical isolate P. aeruginosa PA 8
measurement_protocol: broth microdilution MIC assay, P. aeruginosa PA 8
Assay type: cell-based
particulars: Pseudomonas aeruginosa; Table 5; P. aeruginosa PA8
Experimental: To determine the ability of test compounds to potentiate the inhibition of the growth of bacterial strains, classic cell-based broth microdilution MIC assays were employed. […] After the dilution plates are set up the growing cultures are then diluted in a cuvette containing MH II broth and the optical density is measured at 600 nm. […] The MIC is read visually as the lowest concentration well with no bacterial growth. […]

Lab note: need MIC for C[C@@H](O)[C@H]1C(=O)N2C(C(=O)O)=C(S[C@@H]3CCN(C[C@H]4CNCCO4)C3)[C@H](C)[C@H]12 [Example 50] on clinical isolate P. aeruginosa PA 8, anyone have it?
1 to 4 µg/mL

For the record C[C@@H](O)[C@H]1C(=O)N2C(C(=O)O)=C(S[C@@H]3CCN(CCCN)C3)[C@H](C)[C@H]12 [Example 36] , what value of MIC is listed for clinical isolate P. aeruginosa PA 8?
8 to 32 µg/mL

Record lookup: for clinical isolate P. aeruginosa PA 8, what MIC belongs to C[C@@H](O)[C@H]1C(=O)N2C(C(=O)O)=C(S[C@@H]3CCN(CC4CCN(C(=N)N)CC4)C3)[C@H](C)[C@H]12 [Example 35] ?
1 to 4 µg/mL

Give recorded MIC with clinical isolate P. aeruginosa PA 8 for the following compound: C[C@@H](O)[C@H]1C(=O)N2C(C(=O)O)=C(S[C@@H]3CCCN(CC4CCNCC4)C3)[C@H](C)[C@H]12 [Example 43]
> 32 µg/mL

Query the reported MIC for clinical isolate P. aeruginosa PA 8; item: CNCCCCN1CC[C@@H](SC2=C(C(=O)O)N3C(=O)[C@H]([C@@H](C)O)[C@H]3[C@H]2C)C1 [Example 37]
1 to 4 µg/mL

Record lookup: for clinical isolate P. aeruginosa PA 8, what MIC belongs to C[C@@H](O)[C@H]1C(=O)N2C(C(=O)O)=C(SC3CCN(CC4CCNCC4)CC3)[C@H](C)[C@H]12 [Example 44] ?
8 to 32 µg/mL

Form field: MIC recorded for C[C@@H](O)[C@H]1C(=O)N2C(C(=O)O)=C(S[C@@H]3CCN(C[C@@H]4CNCCO4)C3)[C@H](C)[C@H]12 [Example 49] with clinical isolate P. aeruginosa PA 8 (enter value)
1 to 4 µg/mL

Look up MIC with clinical isolate P. aeruginosa PA 8 for this compound: C[C@@H](O)[C@H]1C(=O)N2C(C(=O)O)=C(S[C@@H]3CCN(C4CCC(N)(CN)CC4)C3)[C@H](C)[C@H]12 (some centres unmarked) [Example 38]
8 to 32 µg/mL

Item C[C@@H](O)[C@H]1C(=O)N2C(C(=O)O)=C(S[C@@H]3CCN(C[C@@H]4CCNC4)C3)[C@H](C)[C@H]12 [Example 53] with clinical isolate P. aeruginosa PA 8 - MIC?
1 to 4 µg/mL

Please state recorded MIC (tested on clinical isolate P. aeruginosa PA 8) of C[C@@H](O)[C@H]1C(=O)N2C(C(=O)O)=C(SC3CN(CC4CCNCC4)C3)[C@H](C)[C@H]12 [Example 42]
1 to 4 µg/mL

Query MIC on clinical isolate P. aeruginosa PA 8 for C[C@@H](O)[C@H]1C(=O)N2C(C(=O)O)=C(S[C@@H]3CCN(C[C@H]4CCNC4)C3)[C@H](C)[C@H]12 [Example 51]
1 to 4 µg/mL

====

Task for the reader: assign each of the following compounds its reported MIC.
System: S. aureus USA 300
measurement_protocol: broth microdilution MIC assay, S. aureus USA 300
Type: cell-based
particulars: Staphylococcus aureus; Table 4; S. aureus USA300; read-out: S. aureus USA300 MIC

Write down the reported MIC of C[C@@H](O)[C@H]1C(=O)N2C(C(=O)O)=C(S[C@@H]3CCN(C[C@@H]4CCN(C(=N)N)C4)C3)[C@H](C)[C@H]12 [Example 54] , test system: S. aureus USA 300.
< 1 µg/mL

Please tell me: MIC of C[C@@H](O)[C@H]1C(=O)N2C(C(=O)O)=C(SC3CN(C4CCNCC4)C3)[C@H](C)[C@H]12 [Example 55] , system S. aureus USA 300?
1 to 4 µg/mL

Lab request: please report MIC under test system S. aureus USA 300 for CCN[C@H]1CC[C@@H](CN2CC(SC3=C(C(=O)O)N4C(=O)[C@H]([C@@H](C)O)[C@H]4[C@H]3C)C2)CC1 [Example 70]
1 to 4 µg/mL

Request: MIC, test system S. aureus USA 300, entry C[C@@H](O)[C@H]1C(=O)N2C(C(=O)O)=C(S[C@@H]3CCN(C[C@H]4CCN(C(=N)N)C4)C3)[C@H](C)[C@H]12 [Example 52]
< 1 µg/mL

Missing value: MIC, S. aureus USA 300, entry C[C@@H](O)[C@H]1C(=O)N2C(C(=O)O)=C(S[C@@H]3CCN(C[C@@H]4CCNC4)C3)[C@H](C)[C@H]12 [Example 53] . Fill in?
1 to 4 µg/mL

I'm curious: which MIC was measured for C[C@@H](O)[C@H]1C(=O)N2C(C(=O)O)=C(S[C@@H]3CCCN(CC4CCNCC4)C3)[C@H](C)[C@H]12 [Example 43] tested on S. aureus USA 300?
1 to 4 µg/mL

Query for S. aureus USA 300: what MIC does the record show for C[C@@H](O)[C@H]1C(=O)N2C(C(=O)O)=C(S[C@@H]3CCN(CCCN)C3)[C@H](C)[C@H]12 [Example 36] ?
8 to 32 µg/mL

Give S. aureus USA 300 MIC for C[C@@H](O)[C@H]1C(=O)N2C(C(=O)O)=C(S[C@@H]3CCN(CC4CCN(C(=N)N)CC4)C3)[C@H](C)[C@H]12 [Example 35]
< 1 µg/mL

Give S. aureus USA 300 MIC for C[C@@H](O)[C@H]1C(=O)N2C(C(=O)O)=C(SC3CN(CCC4CCN(C(=N)N)CC4)C3)[C@H](C)[C@H]12 [Example 71]
1 to 4 µg/mL

Return MIC measured with S. aureus USA 300 given this compound: CNCCCCN1CC[C@@H](SC2=C(C(=O)O)N3C(=O)[C@H]([C@@H](C)O)[C@H]3[C@H]2C)C1 [Example 37]
8 to 32 µg/mL

Give S. aureus USA 300 MIC for C[C@@H](O)[C@H]1C(=O)N2C(C(=O)O)=C(S[C@@H]3CCN(CC4CNCCS4)C3)[C@H](C)[C@H]12 (stereo partly shown) [Example 63]
1 to 4 µg/mL

Short answer please: MIC, S. aureus USA 300, entry CCN[C@H]1CC[C@H](CN2CC(SC3=C(C(=O)O)N4C(=O)[C@H]([C@@H](C)O)[C@H]4[C@H]3C)C2)CC1 [Example 69]
1 to 4 µg/mL

Provide value of MIC for this record tested with S. aureus USA 300: CNCC(=O)N1CCC(CN2CC[C@@H](SC3=C(C(=O)O)N4C(=O)[C@H]([C@@H](C)O)[C@H]4[C@H]3C)C2)CC1 [Example 48]
1 to 4 µg/mL
